# procedureSummary: Metabolic stability in rat liver microsomes
# Assay type: in vitro ADME
# conditionDescription: rat liver microsomes 0.5 mg/mL, NADPH, 37° C.
measuredParameter: half-life (h)
Answers are plain numbers, in h.

Can you look up the measured half-life of CCN1CCC(COc2ccc(Nc3ncc(F)c(-c4cc(F)c5nc6n(c5c4)C(C)(C)CC6)n3)nc2)CC1 [Example 8] for me?
1.29

* * *

# procedureSummary: Metabolic stability in monkey liver microsomes
# Type: in vitro ADME
# conditionDescription: monkey liver microsomes 0.5 mg/mL, scaled
measuredParameter: CLint scaled (mL/min/kg)
Numbers only, in mL/min/kg.

Query (compound): CCN1CCC(COc2ccc(Nc3ncc(F)c(-c4cc(F)c5nc6n(c5c4)C(C)(C)CC6)n3)nc2)CC1 ; field requested: CLint scaled
151

* * *

# procedureSummary: Mouse pharmacokinetics (p.o. and i.v.)
# conditionDescription: plasma, iv, 2 mg/kg
measuredParameter: clearance (mL/min/kg)
Give bare numbers, in mL/min/kg.

So what does the record say about clearance for CCN1CCC(COc2ccc(Nc3ncc(F)c(-c4cc(F)c5nc6n(c5c4)C(C)(C)CC6)n3)nc2)CC1 ?
15.7

* * *

# procedureSummary: Metabolic stability in dog liver microsomes
# Type: in vitro ADME
# conditionDescription: dog liver microsomes 0.5 mg/mL, scaled
measuredParameter: CLint scaled (mL/min/kg)
Numbers only, in mL/min/kg.

Suppose we examine the molecule CCN1CCC(COc2ccc(Nc3ncc(F)c(-c4cc(F)c5nc6n(c5c4)C(C)(C)CC6)n3)nc2)CC1 [Example 8] ; what CLint scaled value has been reported?
143

* * *

# procedureSummary: Metabolic stability in monkey liver microsomes
# Type: in vitro ADME
# conditionDescription: monkey liver microsomes 0.5 mg/mL, NADPH, 37° C.
measuredParameter: half-life (min)
One number for each entry, in min.

Could you tell me which half-life is on file for CCN1CCC(COc2ccc(Nc3ncc(F)c(-c4cc(F)c5nc6n(c5c4)C(C)(C)CC6)n3)nc2)CC1 ?
13.4

* * *

# procedureSummary: Mouse pharmacokinetics (p.o. and i.v.)
# conditionDescription: plasma, po, 10 mg/kg
measuredParameter: Tmax (h)
One number for each entry, in h.

# input molecule: CCN1CCC(COc2ccc(Nc3ncc(F)c(-c4cc(F)c5nc6n(c5c4)C(C)(C)CC6)n3)nc2)CC1 ; wanted: its Tmax
6

* * *

# subjectOfTest: CDK4 (Homo sapiens (Human), UniProt P11802)
# Sequence (P11802 whole entry): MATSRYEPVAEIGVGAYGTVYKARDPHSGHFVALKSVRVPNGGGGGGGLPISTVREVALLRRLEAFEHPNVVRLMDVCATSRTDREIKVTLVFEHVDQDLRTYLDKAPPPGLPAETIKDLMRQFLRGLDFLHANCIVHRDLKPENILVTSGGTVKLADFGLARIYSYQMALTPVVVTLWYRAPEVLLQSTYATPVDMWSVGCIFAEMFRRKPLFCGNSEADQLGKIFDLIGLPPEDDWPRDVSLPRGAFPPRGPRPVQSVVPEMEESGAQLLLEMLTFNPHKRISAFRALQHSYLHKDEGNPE
# Sequence (P30281 whole entry partner): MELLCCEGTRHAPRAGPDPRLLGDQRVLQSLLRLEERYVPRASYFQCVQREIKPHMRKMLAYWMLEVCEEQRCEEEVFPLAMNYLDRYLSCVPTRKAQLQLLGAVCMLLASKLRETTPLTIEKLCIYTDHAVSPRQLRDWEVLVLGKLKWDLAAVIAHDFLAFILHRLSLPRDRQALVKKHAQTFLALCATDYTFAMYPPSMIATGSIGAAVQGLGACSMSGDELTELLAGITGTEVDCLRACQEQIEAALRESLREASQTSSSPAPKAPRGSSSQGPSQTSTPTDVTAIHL
# procedureSummary: CDK4 Inhibition Assay
Record form. Attribute: pIC50. Fill in for each entry.
Give bare numbers, as −log10 of the molar value.

compound	experimentalResult
CN(C)[C@H]1CCN(C(=O)c2ccc(Nc3ncc(F)c(-c4cc(F)c5nc6n(c5c4)C(C)(C)CC6)n3)nc2)C1	9.70
CCN1CCC(COc2ccc(Nc3cc(-c4cc(F)c5nc6n(c5c4)C(C)(C)CC6)c(F)cn3)nc2)CC1	10.00

For each listed entry, give its pIC50.
1. CC1(C)CCc2nc3c(F)cc(-c4nc(Nc5ccc6c(n5)CCN(C(=O)CO)C6)ncc4F)cc3n21 [Example 5, reference compound]
2. CCN1CCN(Cc2ccc(Nc3ncc(F)c(-c4cc(F)c5nn6c(c5c4)CCC6)n3)nc2)CC1
3. CCN1CCC(c2ccc(Nc3ncc(F)c(-c4cc(F)c5nc6n(c5c4)C(C)(C)CC6)n3)nc2)CC1 [Example 3, reference compound]
4. CN1CCC(COc2ccc(Nc3ncc(F)c(-c4cc(F)c5nc6n(c5c4)C(C)(C)CC6)n3)nc2)CC1

9.92
8.02
10.10
9.96

Hey, can you go through the list below and give me pIC50 for every item?
1. CN(C)[C@H]1CCN(c2ccc(Nc3ncc(F)c(-c4cc(F)c5nc6n(c5c4)C(C)(C)CC6)n3)nc2)C1
2. CC1(C)CCc2nc3c(F)cc(-c4nc(Nc5ccc(OCC6CCN(CCCO)CC6)cn5)ncc4F)cc3n21
3. CN1CCC(OCc2ccc(Nc3ncc(F)c(-c4cc(F)c5nc6n(c5c4)C(C)(C)CC6)n3)nc2)CC1
4. CCN1CCN(c2ccc(Nc3ncc(F)c(-c4cc(F)c5nc6n(c5c4)C(C)(C)CC6)n3)nc2)CC1 [Example 15, reference compound]

1: 9.74; 2: 9.96; 3: 9.60; 4: 10.15

Could you tell me pIC50 for each of these compounds? They are listed below.
1. CN1CCC(Oc2ccc(Nc3ncc(F)c(-c4cc(F)c5nc6n(c5c4)C(C)(C)CC6)n3)nc2)CC1
2. CC1(C)CCc2nc3c(F)cc(-c4nc(Nc5ccc(OC6CCN(CCO)CC6)cn5)ncc4F)cc3n21

9.59
9.60
